These measurements were taken from ChEMBL document CHEMBL4480399.

assay: Lipophilicity, log D of the compound at pH 7.4; format: physicochemical; details: buffer
attribute measured: logD

>>> reported_value("CCn1c2ccccc2c2cc(-c3nc4cc(C(=O)NC)ccc4n3CC3CC3)ccc21")
4.1
>>> reported_value("CCn1c2ccccc2c2cc(-c3nc4cc(C(=O)O)ccc4n3CC3CC3)ccc21")
3

###

experiment: Blood clearance in Wistar rat at 1 mg/kg, iv by LC-MS/MS analysis; assay type: ADME, organism-based; details: whole blood
attribute measured: clearance

>>> reported_value("CCn1c2ccccc2c2cc(-c3nc4c(C)c(C(=O)O)ccc4n3CCOC)ccc21")
"1 mL/min/kg"

###

molecular target: Prostaglandin E2 receptor EP4 subtype (Homo sapiens); assay: Antagonist activity at human EP4R assessed as inhibition of agonist-induced cAMP production by fluorescent cAMP tracer cAMP-d2 based FRET assay; assay type: functional
Sequence (P35408 whole entry): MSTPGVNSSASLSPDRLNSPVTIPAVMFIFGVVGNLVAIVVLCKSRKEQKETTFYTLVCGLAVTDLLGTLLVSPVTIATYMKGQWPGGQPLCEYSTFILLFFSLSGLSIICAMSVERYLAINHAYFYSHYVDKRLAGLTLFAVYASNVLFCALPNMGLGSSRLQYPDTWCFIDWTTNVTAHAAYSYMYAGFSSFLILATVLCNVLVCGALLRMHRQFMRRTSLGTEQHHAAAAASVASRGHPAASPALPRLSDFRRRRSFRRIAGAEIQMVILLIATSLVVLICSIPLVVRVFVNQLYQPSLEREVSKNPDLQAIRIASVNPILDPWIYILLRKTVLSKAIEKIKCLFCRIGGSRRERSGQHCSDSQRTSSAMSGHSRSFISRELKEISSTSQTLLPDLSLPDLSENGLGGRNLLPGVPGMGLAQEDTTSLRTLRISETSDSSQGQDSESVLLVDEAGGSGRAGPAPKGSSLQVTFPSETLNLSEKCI
attribute measured: IC50 (nM)

>>> reported_value("CCn1c2ccc(Cl)cc2c2cc(-c3nc4c(C)c(C(=O)O)ccc4n3CCOC)ccc21")
4.4
>>> reported_value("CCn1c2ccccc2c2cc(-c3nc4cc(-c5noc(=O)[nH]5)ccc4n3CCOC)ccc21")
6.1
>>> reported_value("CCn1c2ccccc2c2cc(-c3nc4cc(C(=O)NC)ccc4n3CC3CC3)ccc21")
286
>>> reported_value("CCn1c2ccccc2c2cc(-c3nc4cc(C(=O)O)c(F)cc4n3CCOC)ccc21")
34.6
>>> reported_value("Cn1c2ccccc2c2cc(-c3nc4cc(C(=O)O)ccc4n3CC3CC3)ccc21")
34.2

###

target: Prostaglandin E2 receptor EP4 subtype (Mus musculus, UniProt P32240); experiment: Antagonist activity at mouse EP4R assessed as inhibition of agonist-induced cAMP production by fluorescent cAMP tracer cAMP-d2 based FRET assay
Sequence (P32240 whole entry): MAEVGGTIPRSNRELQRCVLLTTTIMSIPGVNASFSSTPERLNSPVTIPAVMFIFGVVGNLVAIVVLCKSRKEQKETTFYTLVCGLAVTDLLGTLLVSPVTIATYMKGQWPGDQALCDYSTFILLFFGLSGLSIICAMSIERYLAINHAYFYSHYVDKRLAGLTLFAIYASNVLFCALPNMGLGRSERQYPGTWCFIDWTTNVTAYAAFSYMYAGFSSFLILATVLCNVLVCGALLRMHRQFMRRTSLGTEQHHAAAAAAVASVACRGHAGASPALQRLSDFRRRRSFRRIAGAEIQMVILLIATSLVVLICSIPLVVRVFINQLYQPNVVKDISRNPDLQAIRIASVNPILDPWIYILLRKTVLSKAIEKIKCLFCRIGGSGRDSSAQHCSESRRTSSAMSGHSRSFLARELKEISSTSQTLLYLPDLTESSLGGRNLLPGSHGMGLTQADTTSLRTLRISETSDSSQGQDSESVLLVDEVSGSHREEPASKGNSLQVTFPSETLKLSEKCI
pIC50: −log10 of the molar value.
attribute measured: pIC50

>>> reported_value("CCn1c2ccccc2c2cc(-c3nc4cc(C(=O)O)ccc4n3CC3CC3)ccc21")
6.95
>>> reported_value("CCn1c2ccccc2c2cc(-c3nc4cc(C(=O)O)ccc4n3CCOC)ccc21")
7.09

###

# CLhep predicted at […], 1 µM per entry
assay: Intrinsic clearance in Han Wistar rat hepatocytes assessed as blood clearance at 1 uM after 90 mins by LC-MS/MS analysis; type: ADME, cell-based, Hepatocyte
attribute measured: CLhep predicted at […], 1 µM (mL/min/kg)

>>> reported_value("CCn1c2ccccc2c2cc(-c3nc4cc(C(=O)NS(C)(=O)=O)ccc4n3CCOC)ccc21")
26.7
>>> reported_value("CCn1c2ccc(Cl)cc2c2cc(-c3nc4c(C)c(C(=O)O)ccc4n3CCOC)ccc21")
10
>>> reported_value("CCn1c2ccccc2c2cc(-c3nc4cc(-c5n[nH]c(=O)o5)ccc4n3CCOC)ccc21")
30
>>> reported_value("CCn1c2ccccc2c2cc(-c3nc4cc(-c5noc(=O)[nH]5)ccc4n3CCOC)ccc21")
11.7

###

assay: Blood clearance in Wistar rat at 1 mg/kg, po by LC-MS/MS analysis; type: ADME, organism-based; settings: whole blood
attribute measured: CL/F

>>> reported_value("CCn1c2ccccc2c2cc(-c3nc4c(C)c(C(=O)O)ccc4n3CCOC)ccc21")
"1 mL/min/kg"
